All values here come from patent US10660967B2.

Please respond with reported IC50 for every item in the list.
Tested on: PC3 (prostate) carcinoma cell line
Assay: Anti-tumor properties, MTT
Format: cell-based
Settings: Homo sapiens
Numbers only, in µM.

molecule	measured-on	quantity-kind	measured-number
COc1cc(/C=C/C(=O)CC(=O)/C=C/c2ccc(OC(=O)CN)c(OC)c2)ccc1OC(=O)CN.Cl.Cl [HCl-Gly-Cur]	PC3 (prostate) carcinoma cell line	IC50	38.7

Could you now look at the following molecule, please?
IC50 in this record for COc1cc(/C=C/C(=O)CC(=O)/C=C/c2ccc(OC(=O)[C@@H](C)N)c(OC)c2)ccc1OC(=O)[C@@H](C)N.Cl.Cl [HCl-D-Ala-Cur] : 30.7

* * *

System: gastric mucosa
Experiment: Ulcerogenic liability (ulcer index)
Assay type: in vivo, albino mice
Conditions: orally, three successive days, 10 mg/kg indomethacin mol equivalent
quantity-kind: Average severity of ulcer
Give bare numbers.

As a guide, the following entries are already answered.
                                   compound     measured_on  measured_number
0  COc1cc(/C=C/C(=O)CC(=O)/C=C/c2ccc(OC(=O)[C@@H](N)CCSC)c(OC)c2)ccc1OC(=O)[C@@H](N)CCSC.Cl.Cl [HCl-L-Met-Cur]  gastric mucosa                0
1  COc1cc(/C=C/C(=O)CC(=O)/C=C/c2ccc(OC(=O)[C@H](N)CCSC)c(OC)c2)ccc1OC(=O)[C@H](N)CCSC.Cl.Cl [HCl-D-Met-Cur]  gastric mucosa                0

Average severity of ulcer in this record for COc1cc(/C=C/C(=O)CC(=O)/C=C/c2ccc(OC(=O)CNC(=O)OCC3c4ccccc4-c4ccccc43)c(OC)c2)ccc1OC(=O)CNC(=O)OCC1c2ccccc2-c2ccccc21 : 0

* * *

System: MCF7 (breast) carcinoma cell line
Test: Anti-tumor properties, MTT
Assay type: cell-based
Conditions: Homo sapiens, MCF7; read-out: IC50 (μM) MCF7 (breast)
Please respond with reported IC50 for every item in the list.
One number for each entry, in µM.

As a guide, the following entries are already answered.
compound	measured-on	unit-name	measured-number
COc1cc(/C=C/C(=O)CC(=O)/C=C/c2ccc(OC(=O)[C@H](C)N)c(OC)c2)ccc1OC(=O)[C@H](C)N.Cl.Cl [HCl-L-Ala-Cur]	MCF7 (breast) carcinoma cell line	µM	10.7
COc1cc(/C=C/C(=O)CC(=O)/C=C/c2ccc(OC(=O)[C@@H](C)NC(=O)OC(C)(C)C)c(OC)c2)ccc1OC(=O)[C@@H](C)NC(=O)OC(C)(C)C	MCF7 (breast) carcinoma cell line	µM	29.2
COc1cc(/C=C/C(=O)CC(=O)/C=C/c2ccc(OC(=O)CCN)c(OC)c2)ccc1OC(=O)CCN.Cl.Cl [HCl-β-Ala-Cur]	MCF7 (breast) carcinoma cell line	µM	9.36
COc1cc(/C=C/C(=O)CC(=O)/C=C/c2ccc(OC(=O)[C@H](N)CCSC)c(OC)c2)ccc1OC(=O)[C@H](N)CCSC.Cl.Cl [HCl-D-Met-Cur]	MCF7 (breast) carcinoma cell line	µM	10.2
COc1cc(/C=C/C(=O)CC(=O)/C=C/c2ccc(OC(=O)[C@H](CCC(N)=O)NC(=O)OCc3ccccc3)c(OC)c2)ccc1OC(=O)[C@H](CCC(N)=O)NC(=O)OCc1ccccc1	MCF7 (breast) carcinoma cell line	µM	10.2

Value sought for every listed compound: IC50.
1. COc1cc(/C=C/C(=O)CC(=O)/C=C/c2ccc(OC(=O)[C@H](CCC(N)=O)NC(=O)OC(C)(C)C)c(OC)c2)ccc1OC(=O)[C@H](CCC(N)=O)NC(=O)OC(C)(C)C
2. CC[C@H](C)[C@H](NC(=O)OC(C)(C)C)C(=O)Oc1ccc(/C=C/C(=O)CC(=O)/C=C/c2ccc(OC(=O)[C@@H](NC(=O)OC(C)(C)C)[C@@H](C)CC)c(OC)c2)cc1OC
3. COc1cc(/C=C/C(=O)CC(=O)/C=C/c2ccc(OC(=O)C(C)N)c(OC)c2)ccc1OC(=O)C(C)N.Cl.Cl (racemic) [HCl-DL-Ala-Cur]
4. COc1cc(/C=C/C(=O)CC(=O)/C=C/c2ccc(OC(=O)[C@H](C)NC(=O)OC(C)(C)C)c(OC)c2)ccc1OC(=O)[C@H](C)NC(=O)OC(C)(C)C
5. COc1cc(/C=C/C(=O)CC(=O)/C=C/c2ccc(OC(=O)C(C)NC(=O)OC(C)(C)C)c(OC)c2)ccc1OC(=O)C(C)NC(=O)OC(C)(C)C (racemic)
6. COc1cc(/C=C/C(=O)CC(=O)/C=C/c2ccc(OC(=O)[C@H](CCSC)NC(=O)OC(C)(C)C)c(OC)c2)ccc1OC(=O)[C@H](CCSC)NC(=O)OC(C)(C)C

1. 8.48
2. 49.6
3. 9.79
4. 25.1
5. 34.8
6. 36.3

* * *

Test system: Salmonella typhi ATCC19430
Assay: Antimicrobial MIC, agar dilution
Format: cell-based
Conditions: Salmonella enterica, 18 h, read-out: Minimum inhibitory concentration (MIC)
quantity-kind: log10 MIC (log10 of the value in µg/mL)
Parameter value (number): base-10 log of MIC in µg/mL.

As a guide, the following entries are already answered.
molecule	log10 MIC
COc1cc(/C=C/C(=O)CC(=O)/C=C/c2ccc(OC(=O)[C@H](CC(C)C)NC(=O)OCC3c4ccccc4-c4ccccc43)c(OC)c2)ccc1OC(=O)[C@H](CC(C)C)NC(=O)OCC1c2ccccc2-c2ccccc21 [Fmoc-Leu-Cur]	-0.30
COc1cc(/C=C/C(=O)CC(=O)/C=C/c2ccc(OC(=O)CCN)c(OC)c2)ccc1OC(=O)CCN.Cl.Cl [HCl-β-Ala-Cur]	0.00
COc1cc(/C=C/C(=O)CC(=O)/C=C/c2ccc(OC(=O)[C@@H](C)N)c(OC)c2)ccc1OC(=O)[C@@H](C)N.Cl.Cl [HCl-D-Ala-Cur]	-0.60

Value sought for every listed molecule: log10 MIC.
1. COc1cc(/C=C/C(=O)CC(=O)/C=C/c2ccc(OC(=O)[C@H](C)NC(=O)OCc3ccccc3)c(OC)c2)ccc1OC(=O)[C@H](C)NC(=O)OCc1ccccc1 [Cbz-Ala-Cur]
2. COc1cc(/C=C/C(=O)CC(=O)/C=C/c2ccc(OC(=O)[C@@H](CCSC)NC(=O)OC(C)(C)C)c(OC)c2)ccc1OC(=O)[C@@H](CCSC)NC(=O)OC(C)(C)C [Boc-D-Met-Cur]
3. COc1cc(/C=C/C(=O)CC(=O)/C=C/c2ccc(OC(=O)[C@H](N)CCSC)c(OC)c2)ccc1OC(=O)[C@H](N)CCSC.Cl.Cl [HCl-D-Met-Cur]
4. O=C(O)c1cn(C2CC2)c2cc(N3CCNCC3)c(F)cc2c1=O [Ciprofloxacin, reference compound]
5. COc1cc(/C=C/C(=O)CC(=O)/C=C/c2ccc(OC(=O)[C@H](CCSC)NC(=O)OC(C)(C)C)c(OC)c2)ccc1OC(=O)[C@H](CCSC)NC(=O)OC(C)(C)C [Boc-L-Met-Cur]
6. CC[C@H](C)[C@H](NC(=O)OC(C)(C)C)C(=O)Oc1ccc(/C=C/C(=O)CC(=O)/C=C/c2ccc(OC(=O)[C@@H](NC(=O)OC(C)(C)C)[C@@H](C)CC)c(OC)c2)cc1OC [Boc-L-Ile-Cur]
7. COc1cc(/C=C/C(=O)CC(=O)/C=C/c2ccc(OC(=O)[C@H](Cc3ccccc3)NC(=O)OC(C)(C)C)c(OC)c2)ccc1OC(=O)[C@H](Cc1ccccc1)NC(=O)OC(C)(C)C [Boc-L-Phe-Cur]

1: -0.30; 2: 0.00; 3: -0.60; 4: 0.38; 5: 0.30; 6: -0.90; 7: -0.60

Value sought for every listed molecule: log10 MIC.
1. COc1cc(/C=C/C(=O)CC(=O)/C=C/c2ccc(OC(=O)[C@H](Cc3ccccc3)NC(=O)OCC3c4ccccc4-c4ccccc43)c(OC)c2)ccc1OC(=O)[C@H](Cc1ccccc1)NC(=O)OCC1c2ccccc2-c2ccccc21 [Fmoc-Phe-Cur]
2. COc1cc(/C=C/C(=O)CC(=O)/C=C/c2ccc(OC(=O)CCNC(=O)OC(C)(C)C)c(OC)c2)ccc1OC(=O)CCNC(=O)OC(C)(C)C [Boc-β-Ala-Cur]
3. COc1cc(/C=C/C(=O)CC(=O)/C=C/c2ccc(OC(=O)[C@H](CCSC)NC(=O)OCc3ccccc3)c(OC)c2)ccc1OC(=O)[C@H](CCSC)NC(=O)OCc1ccccc1 [Cbz-Met-Cur]
4. COc1cc(/C=C/C(=O)CC(=O)/C=C/c2ccc(OC(=O)CNC(=O)OC(C)(C)C)c(OC)c2)ccc1OC(=O)CNC(=O)OC(C)(C)C [Boc-Gly-Cur]
5. COc1cc(/C=C/C(=O)CC(=O)/C=C/c2ccc(OC(=O)[C@@H](NC(=O)OCc3ccccc3)C(C)C)c(OC)c2)ccc1OC(=O)[C@@H](NC(=O)OCc1ccccc1)C(C)C [Cbz-Val-Cur]
6. COc1cc(/C=C/C(=O)CC(=O)/C=C/c2ccc(OC(=O)[C@H](C)N)c(OC)c2)ccc1OC(=O)[C@H](C)N.Cl.Cl [HCl-L-Ala-Cur]
7. COc1cc(/C=C/C(=O)CC(=O)/C=C/c2ccc(OC(=O)C(C)NC(=O)OC(C)(C)C)c(OC)c2)ccc1OC(=O)C(C)NC(=O)OC(C)(C)C (racemic) [Boc-DL-Ala-Cur]

1: -0.60; 2: -0.30; 3: -0.90; 4: -0.90; 5: -0.90; 6: -0.30; 7: -0.60

Value sought for every listed molecule: log10 MIC.
1. COc1cc(/C=C/C(=O)CC(=O)/C=C/c2ccc(OC(=O)[C@H](Cc3c[nH]c4ccccc34)NC(=O)OCc3ccccc3)c(OC)c2)ccc1OC(=O)[C@H](Cc1c[nH]c2ccccc12)NC(=O)OCc1ccccc1 [Cbz-Trp-Cur]
2. COc1cc(/C=C/C(=O)CC(=O)/C=C/c2ccc(OC(=O)[C@@H](N)CCC(N)=O)c(OC)c2)ccc1OC(=O)[C@@H](N)CCC(N)=O.Cl.Cl [HCl-L-Gln-Cur]

[-0.90, -0.90]

Value sought for every listed molecule: log10 MIC.
1. COc1cc(/C=C/C(=O)CC(=O)/C=C/c2ccc(OC(=O)CNC(=O)OCc3ccccc3)c(OC)c2)ccc1OC(=O)CNC(=O)OCc1ccccc1 [Cbz-Gly-Cur]
2. COc1cc(/C=C/C(=O)CC(=O)/C=C/c2ccc(O)c(OC)c2)ccc1O [Curcumin]
3. COc1cc(/C=C/C(=O)CC(=O)/C=C/c2ccc(OC(=O)[C@@H](NC(=O)OC(C)(C)C)C(C)C)c(OC)c2)ccc1OC(=O)[C@@H](NC(=O)OC(C)(C)C)C(C)C [Boc-L-Val-Cur]

1. -0.30
2. -0.90
3. -0.60
